target: full-length recombinant human NEK7 (Homo sapiens, UniProt Q8TDX7); construct: full-length recombinant human NEK7; GST (N); purchased SignalChem N09-10G; host or cells: Sf9 insect cells (baculovirus); experiment: NEK7 enzymatic assay ([33P]-ATP, casein substrate); assay type: biochemical; details: Table 2d; recombinant human NEK7, casein substrate
Sequence (Q8TDX7 whole entry): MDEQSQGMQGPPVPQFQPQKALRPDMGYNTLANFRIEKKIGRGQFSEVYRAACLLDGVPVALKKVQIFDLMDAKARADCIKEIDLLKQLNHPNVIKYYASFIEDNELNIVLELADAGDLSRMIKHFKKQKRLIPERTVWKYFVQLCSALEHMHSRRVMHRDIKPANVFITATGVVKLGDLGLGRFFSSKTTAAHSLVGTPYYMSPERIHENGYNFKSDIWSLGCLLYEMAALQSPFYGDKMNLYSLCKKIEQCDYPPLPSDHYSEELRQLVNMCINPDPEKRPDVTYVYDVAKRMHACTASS
pIC50: −log10 of the molar value.
Property Name: pIC50

As a guide, the following entries are already answered.
- CN1CCN(C(=O)c2ccc(NC(=O)Nc3ccc(-c4nn(C5CC5)c5ncnc(N)c45)cc3F)cc2C(F)(F)F)CC1 [Id-48]: 6.52 to 6.82
- CN1CCN(Cc2ccc(NC(=O)Nc3ccc(-c4cn(C5CC5)c5ncnc(N)c45)cc3F)cc2)CC1 [Id-56]: < 5.82
- Nc1ncnc2c1c(-c1ccc(NC(=O)Nc3ccc(CN4CCOCC4)cc3F)c(F)c1)nn2C1CC1 [Id-26]: < 5.82

Supply recorded pIC50 for CCN1CCN(Cc2ccc(NC(=O)Nc3ccc(-c4cn(C5CC5)c5ncnc(N)c45)cc3F)cc2C(F)F)CC1 [Id-59] here.
< 5.82

For Nc1ncnc2c1c(-c1ccc(NC(=O)Nc3ccc(CN4CCOCC4)c(C(F)(F)F)c3)c(F)c1)cn2C1CC1 [Id-31] , write its pIC50.
5.82 to 6.30

Could you please provide reported pIC50 for CN1CCN(Cc2ccc(NC(=O)Nc3ccc(-c4nn(C5CC5)c5ccnc(N)c45)cc3F)cc2C(F)(F)F)CC1 [Id-30] ? Thanks!
> 6.82

Using known records, supply pIC50 for COCCN1CCN(Cc2ccc(NC(=O)Nc3ccc(-c4cn(C5CC5)c5ncnc(N)c45)cc3F)cc2C(F)(F)F)CC1 [Id-42]
> 6.82

----------
Listed here: items and their measured pIC50.
molecular target: full-length recombinant human NEK7 (Homo sapiens, UniProt Q8TDX7); construct: full-length recombinant human NEK7; GST (N); purchased SignalChem N09-10G; host or cells: Sf9 insect cells (baculovirus); assay: NEK7 enzymatic assay ([33P]-ATP, casein substrate); type: biochemical; settings: comparative compounds of Structure (II)
pIC50: −log10 of the molar value.

Known pIC50 results, listed for orientation:
• CC(C)n1nc(-c2ccc3c(c2F)CCN3C(=O)Cc2cccc(C(F)(F)F)c2)c2c(N)ncnc21 = 6.30 to 6.52
• CC(C)n1nc(-c2ccc3c(c2F)CCN3C(=O)Cc2cccc(OC(F)(F)F)c2)c2c(N)ncnc21 = 6.52 to 6.82
• Nc1ncnc2c1c(-c1ccc3c(c1F)CCN3C(=O)Cc1ccc(F)c(C(F)(F)F)c1)nn2C1CCOCC1 = > 6.82
• CC(C)n1nc(-c2ccc3c(c2Cl)CCN3C(=O)Cc2ccc(F)c(C(F)(F)F)c2)c2c(N)ncnc21 = 5.82 to 6.30
• Nc1ncnc2c1c(-c1ccc3c(c1Cl)CCN3C(=O)Cc1cc(C(F)(F)F)ccc1F)cn2C1CC1 = > 6.82

Note: attention shifts to another entry.
Fill in reported pIC50 for this entry: `Nc1ncnc2c1c(-c1ccc3c(c1F)CCN3C(=O)Cc1cccc(C(F)(F)F)c1)nn2C1CC1`
6.52 to 6.82

----------
Listing of recorded pIC50 by entry.
tested on: IL-1β release; assay: IL-1β release assay (PMA-differentiated THP-1 cells, LPS + nigericin, cleaved IL-1β by JESS); type: cell-based; settings: Homo sapiens, 48 h; Table 2d; THP-1 cells, LPS + nigericin; read-out: IL-1β release IC50
pIC50: −log10 of the molar value.

Would you please look over these solved cases?
- Nc1ncnc2c1c(-c1ccc(NC(=O)Nc3ccc(CN4CCOCC4)c(C(F)(F)F)c3)c(F)c1)cn2C1CC1: 6.30 to 6.52
- CN1CCN(Cc2ccc(NC(=O)Nc3ccc(-c4nn(C5CC5)c5ccnc(N)c45)cc3F)cc2C(F)(F)F)CC1: > 6.82
- CCN1CCN(Cc2ccc(NC(=O)Nc3ccc(-c4nn(C5CC5)c5ncnc(N)c45)cc3F)cc2C(F)(F)F)CC1: > 6.82
- CN1CCN(C(=O)c2ccc(NC(=O)Nc3ccc(-c4nn(C5CC5)c5ncnc(N)c45)cc3F)cc2C(F)(F)F)CC1: < 6.00
- CN1CCN(Cc2ccc(NC(=O)Nc3ccc(-c4nn(C5CC5)c5ncnc(N)c45)cc3F)cc2F)CC1: > 6.82
- CN1CCN(Cc2ccc(NC(=O)Nc3ccc(-c4nn(CC(C)(C)O)c5ncnc(N)c45)cc3F)cc2C(F)(F)F)CC1: > 6.82

Continue with the molecule presented below.
Kindly indicate its recorded pIC50. Item: `CN1CCN(Cc2ccc(NC(=O)Nc3ccc(-c4cn(C5CC5)c5ncnc(N)c45)cc3F)cc2C(F)(F)F)CC1`
> 6.82

----------
biological target: full-length recombinant human NEK7 (Homo sapiens); construct: full-length recombinant human NEK7; GST (N); purchased SignalChem N09-10G; host or cells: Sf9 insect cells (baculovirus); assay: NEK7 enzymatic assay ([33P]-ATP, casein substrate); assay type: biochemical; conditions: Table 2b; recombinant human NEK7, casein substrate
Property Name: IC50

- CN1CCC(n2nc(C(C)(C)C)cc2NC(=O)Nc2ccc(Oc3ccnc4[nH]cc(Cl)c34)cc2F)CC1: > 1500 nM
- CC(C)(C)c1cc(NC(=O)Nc2ccc(Oc3ncnc4[nH]cc(Cl)c34)cc2F)n(-c2ccccc2)n1: > 1500 nM
- Cc1cc(NC(=O)Nc2ccc(Oc3ccnc4[nH]cc(Cl)c34)cc2F)n(-c2ccc(C#N)cc2)n1: > 1500 nM
- CC(C)(C)c1cc(NC(=O)NC2CCC(Oc3ccnc4[nH]ccc34)CC2)n(-c2ccccc2)n1 (stereo not shown): > 1500 nM

With those in mind, consider the next compound.
# assay system full-length recombinant human NEK7 (Homo sapiens): give IC50 of `CC(C)(C)c1cc(NC(=O)Nc2cc(F)c(Oc3ccnc4[nH]cc(Cl)c34)cc2F)n(-c2ccccc2)n1`
> 1500 nM

----------
target: full-length recombinant human NEK7 (Homo sapiens); construct: full-length recombinant human NEK7; GST (N); purchased SignalChem N09-10G; host or cells: Sf9 insect cells (baculovirus); experiment: NEK7 enzymatic assay ([33P]-ATP, casein substrate); format: biochemical; settings: Table 2e; recombinant human NEK7, casein substrate
Property Name: IC50

Worked cases, answers included:
* CN1CCN(Cc2ccc(NC(=O)Nc3ccc(Oc4ccnc5[nH]cc(Cl)c45)cc3F)cc2Cl)CC1 | > 1.5 µM
* CN1CCC(Oc2ccc(NC(=O)Nc3ccc(Oc4ccnc5[nH]cc(Cl)c45)cc3F)cc2C(F)(F)F)CC1 | 0.151 to 0.3 µM
* COc1cc(CN2CCN(C)CC2)ccc1NC(=O)Nc1ccc(Oc2ccnc3[nH]cc(Cl)c23)cc1F | > 1.5 µM
* COc1cc(NC(=O)Nc2ccc(Oc3ccnc4[nH]cc(Cl)c34)cc2F)ccc1CN1CCN(C)CC1 | > 1.5 µM
* CN1CCN(C(=O)c2ccc(NC(=O)Nc3ccc(Oc4ccnc5[nH]cc(Cl)c45)cc3F)cc2C(F)(F)F)CC1 | > 1.5 µM
* CN1CCCN(Cc2ccc(NC(=O)Nc3ccc(Oc4ccnc5[nH]cc(Cl)c45)cc3F)cc2C(F)(F)F)CC1 | > 1.5 µM

Consider the compound `CN(C)C1CN(Cc2ccc(NC(=O)Nc3ccc(Oc4ccnc5[nH]cc(Cl)c45)cc3F)cc2C(F)(F)F)C1` . State its measured IC50.
> 1.5 µM

For the compound `O=C(Nc1ccc(CN2CCC2)c(C(F)(F)F)c1)Nc1ccc(Oc2ccnc3[nH]cc(Cl)c23)cc1F` , report IC50.
> 1.5 µM

Report measured IC50; entry is `O=C(Nc1ccc(CN2CCOCC2)c(F)c1)Nc1ccc(Oc2ccnc3[nH]cc(Cl)c23)cc1F`
> 1.5 µM

Return IC50 (reported value) for this compound: `CN1CCC(Cc2ccc(NC(=O)Nc3ccc(Oc4ccnc5[nH]cc(Cl)c45)cc3F)cc2C(F)(F)F)CC1`
0.501 to 1.5 µM

Given CC(c1ccc(NC(=O)Nc2ccc(Oc3ccnc4[nH]cc(Cl)c34)cc2F)cc1C(F)(F)F)N1CCN(C)CC1 (stereo not drawn) , respond with its IC50.
0.501 to 1.5 µM

Supply reported IC50 belonging to this compound: `CN1CCC(=Cc2ccc(NC(=O)Nc3ccc(Oc4ccnc5[nH]cc(Cl)c45)cc3F)cc2C(F)(F)F)CC1`
0.301 to 0.5 µM

Given `CN1CCN(c2cc(NC(=O)Nc3ccc(Oc4ccnc5[nH]cc(Cl)c45)cc3F)cc(C(F)(F)F)c2)CC1` , respond with its IC50.
> 1.5 µM

Give reported IC50 value for `Cc1cn(-c2ccc(NC(=O)Nc3ccc(Oc4ccnc5[nH]cc(Cl)c45)cc3F)cc2C(F)(F)F)cn1`
0.301 to 0.5 µM

Answer with reported IC50 of `Cc1cn(-c2cc(NC(=O)Nc3ccc(Oc4ccnc5[nH]cc(Cl)c45)cc3F)cc(C(F)(F)F)c2)cn1`
0.501 to 1.5 µM

State its IC50: `CN(C)Cc1ccc(NC(=O)Nc2ccc(Oc3ccnc4[nH]cc(Cl)c34)cc2F)cc1C(F)(F)F`
> 1.5 µM

Respond only with IC50 recorded for `CN1CCN(Cc2ccc(NC(=O)Nc3ccc(Oc4ccnc5[nH]c(Cl)c(Cl)c45)cc3F)cc2C(F)(F)F)CC1`
0.301 to 0.5 µM

Note down IC50 recorded for `CCN1CCN(Cc2ccc(NC(=O)Nc3ccc(Oc4ccnc5[nH]cc(Cl)c45)cc3F)cc2C(F)(F)F)CC1`
0.501 to 1.5 µM

Output IC50 of CN(C)C1CCN(Cc2ccc(NC(=O)Nc3ccc(Oc4ccnc5[nH]cc(Cl)c45)cc3F)cc2C(F)(F)F)C1 (stereo not drawn)
> 1.5 µM

Return value of IC50 for input `CN1CCN(Cc2ccc(NC(=O)Nc3ccc(Oc4ccnc5[nH]cc(Cl)c45)cc3F)cc2C(F)(F)F)CC1` , no commentary.
0.151 to 0.3 µM

Ref: patent US20230210853A1
